Tested on: Human lung cells (MRC-5)
Assay comment: in vitro
Reported conditions: read-out: LC50 MRC-5; 24 hours incubation; concentration that causes 50% cell lethality
Where a SMILES comes first, the peptide text is derived from it. [ ]: non-standard residue; d: D form. Nspe = C[C@H](NCC(=O)O)c1ccccc1; Nlys = NCCCCNCC(=O)O
Test readout: CC50 (µM)
# number only, unit µM dropped from output

Input: So what's the measured CC50 for this one? C[C@@H](c1ccccc1)N(CC(N)=O)C(=O)CN(C(=O)CN(CCCCN)C(=O)CN(C(=O)CN(C(=O)CN(CCCCN)C(=O)CN(C(=O)CN(C(=O)CN(CCCCN)C(=O)CN(C(=O)CN(C(=O)CNCCCCN)[C@@H](C)c1ccccc1)[C@@H](C)c1ccccc1)[C@@H](C)c1ccccc1)[C@@H](C)c1ccccc1)[C@@H](C)c1ccccc1)[C@@H](C)c1ccccc1)[C@@H](C)c1ccccc1 [Peptoid 1-2, reference compound] (H-[Nlys][Nspe][Nspe][Nlys][Nspe][Nspe][Nlys][Nspe][Nspe][Nlys][Nspe][Nspe]-NH2)
Output: 8.6

Input: So what's the measured CC50 for this one? C[C@@H](c1ccccc1)N(CC(N)=O)C(=O)CN(C(=O)CN(CCCCN)C(=O)CN(C(=O)CN(C(=O)CN(CCCCN)C(=O)CN(C(=O)CN(C(=O)CN(CCCCN)C(=O)CN(C(=O)CN(C(=O)CNCCCCN)[C@@H](C)c1ccccc1)[C@@H](C)c1ccccc1)[C@@H](C)c1ccccc1)[C@@H](C)c1ccccc1)[C@@H](C)c1ccccc1)[C@@H](C)c1ccccc1)[C@@H](C)c1ccccc1 [Peptoid 1-1, reference compound] (H-[Nlys][Nspe][Nspe][Nlys][Nspe][Nspe][Nlys][Nspe][Nspe][Nlys][Nspe][Nspe]-NH2)
Output: 11.8

---

System: red blood cells
Assay comment: Hemolysis assay
Type: cell-based, Sprague-Dawley mouse
Test readout: HC10 (µM)
# number only, unit µM dropped from output

Input: So what's the measured HC10 for this one? "C[C@@H](c1ccccc1)N(CC(N)=O)C(=O)CN(C(=O)CN(CCCCN)C(=O)CN(C(=O)CN(CCCCN)C(=O)CN(CCCCN)C(=O)CN(C(=O)CN(C(=O)CN(CCCCN)C(=O)CN(C(=O)CN(C(=O)CN(CCCCN)C(=O)CN(CCc1c[nH]c2ccccc12)C(=O)CNCCc1c[nH]c2ccccc12)[C@@H](C)c1ccccc1)[C@@H](C)c1ccccc1)[C@@H](C)c1ccccc1)[C@@H](C)c1ccccc1)[C@@H](C)c1ccccc1)[C@@H](C)c1ccccc1"
Output: 20.4

Input: So what's the measured HC10 for this one? "C[C@@H](c1ccccc1)N(CC(N)=O)C(=O)CN(C(=O)CN(CCCCN)C(=O)CN(C(=O)CN(C(=O)CN(CCCCN)C(=O)CN(C(=O)CN(C(=O)CN(CCCCN)C(=O)CN(C(=O)CN(C(=O)CN(CCCCN)C(=O)CNCCc1c[nH]c2ccccc12)[C@@H](C)c1ccccc1)[C@@H](C)c1ccccc1)[C@@H](C)c1ccccc1)[C@@H](C)c1ccccc1)[C@@H](C)c1ccccc1)[C@@H](C)c1ccccc1)[C@@H](C)c1ccccc1"
Output: 6.3

---

Test system: red blood cells
Assay comment: Hemolysis assay
Type: cell-based, Sprague-Dawley mouse
Where a SMILES comes first, the peptide text is derived from it. [ ]: non-standard residue; d: D form. Gly(N(CH2)2(3-indolyl)) = O=C(O)CNCCc1c[nH]c2ccccc12; Nspe = C[C@H](NCC(=O)O)c1ccccc1; Nlys = NCCCCNCC(=O)O
Test readout: HC50

Input: So what's the measured HC50 for this one? "C[C@@H](c1ccccc1)N(CC(N)=O)C(=O)CN(CCCCN)C(=O)CN(CCCCN)C(=O)CN(C(=O)CN(C(=O)CN(CCCCN)C(=O)CN(CCc1c[nH]c2ccccc12)C(=O)CN(C(=O)CN(CCCCN)C(=O)CN(C(=O)CN(C(=O)CNCCCCN)[C@@H](C)c1ccccc1)[C@@H](C)c1ccccc1)[C@@H](C)c1ccccc1)[C@@H](C)c1ccccc1)[C@@H](C)c1ccccc1"
Output: >100/>100 μM

Input: So what's the measured HC50 for this one? C[C@@H](c1ccccc1)N(CC(=O)N(CCCCN)CC(=O)N(CCc1c[nH]c2ccccc12)CC(=O)N(CCc1c[nH]c2ccccc12)CC(N)=O)C(=O)CN(CCCCN)C(=O)CN(CCCCN)C(=O)CN(C(=O)CN(C(=O)CN(CCCCN)C(=O)CN(C(=O)CN(C(=O)CNCCCCN)[C@@H](C)c1ccccc1)[C@@H](C)c1ccccc1)[C@@H](C)c1ccccc1)[C@@H](C)c1ccccc1 [Peptoid 29-1] (H-[Nlys][Nspe][Nspe][Nlys][Nspe][Nspe][Nlys][Nlys][Nspe][Nlys][Gly(N(CH2)2(3-indolyl))][Gly(N(CH2)2(3-indolyl))]-NH2)
Output: >100/>100 μM

Where do these numbers come from? They come from patent US20240226228A1.
